Listed here: items and their measured ratio of its own IC50 to that of the control peptide.
Target: T1, human MHC class II allotype HLA-DRB1*0701 (human)
T1 construct: Source and construct of the MHC protein in the assay are not described
Experiment: competitive MHC class II binding assay; competitor control peptide influenza haemagglutinin 307-319;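 note: each test peptide was scored on how well it displaces the known control binder from each human MHC class II allotype studied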
I only need the number, thanks.

Some solved entries appear below for comparison.
• HDDVVSMEYDLAYKL (Synthetic peptide, 80.9% purity) [HDM39A] = 0.71
• LDMRNIQVRGLKQ (Synthetic peptide, 70.3% purity) [HDM33] = 46.5
• DKFERHIGIIDLK (Synthetic peptide, 81.4% purity) [HDM30] = 6.2

The recorded ratio of its own IC50 to that of the control peptide for entry REALAQTHSAIAVI (Synthetic peptide, 69.6% purity) [HDM09A] equals 0.49

Briefly, ratio of its own IC50 to that of the control peptide measured for DGVLACAIATHAKIR (Synthetic peptide) [HDM26A] : 16.3

Measured ratio of its own IC50 to that of the control peptide of IDLRQMRTVTPIR (Synthetic peptide, 79.2% purity) [HDM01] : 16

ratio of its own IC50 to that of the control peptide for VSMEYDLAYKLGDLH (Synthetic peptide, 66.9% purity) [HDM40A] is 2.29

The value of ratio of its own IC50 to that of the control peptide measured for the binder TAIFQDTVRAEMTK (Synthetic peptide, 79.1% purity) [HDM48] turned out to be 15.7
